System: Caco (colon)
Test: Cytotoxicity on human cells, automated nuclei counting: Caco
Assay type: cell-based
Conditions: exposed 24 h to 48 h, 0.1 to 25 μM
Experimental: Cytotoxicity: This method is based on an automated imaging analysis. 4.10^3 cells were cultivated on 96-well plates and left for 24 hours so as to bind, to spread and proliferate. All the cell lines were cultivated in a DMEM or RPMI (Invitrogen) medium. All these media were completed with antibiotics (penicillin-streptomycin) (Lonza) and 10% by volume of fetal calf serum (Invitrogen). The cells were cultivated at 37° C. with 5% of CO2. […]
READOUT_KIND: IC50 (µM)
Please respond with the number in µM and leave the unit unwritten.

Here are 3 molecules together with their reported answers.
COC1CCN2C(=O)c3cccc(NC(=O)Nc4ccn(C)n4)c3C2C1 (stereo not shown) [Compound 60]; 15
Cc1cccc(NC(=O)Nc2cccc3c2C2CC(O)CCN2C3=O)n1 (stereo not shown) [Compound 108]; 15
O=C(Nc1ccccn1)Nc1cccc2c1C1C[C@@H](O)CCN1C2=O (stereo partly shown) [Compound 104]; 7

Prompt line: Give the measured IC50 of COc1cc(NC(=O)Nc2cccc3c2C2CC(OC)CCN2C3=O)nc2ccccc12 (stereo not shown) [Compound 55] .
Response line: 10

Prompt line: Give the measured IC50 of COC1CCN2C(=O)c3cccc(NC(=O)Nc4ncccc4C)c3C2C1 (stereo not shown) [Compound 57] .
Response line: 2

Prompt line: Give the measured IC50 of Cc1cccnc1NC(=O)Nc1cccc2c1C1CC(O)CCN1C2=O (stereo not shown) [Compound 107] .
Response line: 12

Prompt line: Give the measured IC50 of O=C(Nc1ncccn1)Nc1cccc2c1C1CCCCN1C2=O (stereo not shown) [Compound 42] .
Response line: 2

Prompt line: Give the measured IC50 of Cc1cnc(NC(=O)Nc2cccc3c2C2CC4(CCN2C3=O)SCCS4)cn1 (stereo not shown) [Compound 51] .
Response line: 0.5

Prompt line: Give the measured IC50 of Cc1cccc(NC(=O)Nc2cccc3c2C2CC4(CCN2C3=O)OCCO4)n1 (stereo not shown) [Compound 46] .
Response line: 10

Prompt line: Give the measured IC50 of COC1CCN2C(=O)c3cccc(NC(=O)Nc4cnc(C)cn4)c3C2C1 (stereo not shown) [Compound 59] .
Response line: 12

Prompt line: Give the measured IC50 of O=C1c2cccc(NC(=S)Nc3cccc(Br)n3)c2C2CCCCN12 (stereo not shown) [Compound 67] .
Response line: 3

Prompt line: Give the measured IC50 of O=C(Nc1cccc(Br)n1)Nc1cccc2c1C1CC3(CCN1C2=O)OCCO3 (stereo not shown) [Compound 47] .
Response line: 12

Prompt line: Give the measured IC50 of O=C1c2cccc(NC(=S)Nc3ccc(Br)cn3)c2C2CCCCN12 (stereo not shown) [Compound 66] .
Response line: 2

---

UniProt:Q13627: reported IC50 for various molecules.

Here are 3 molecules together with their reported answers.
O=C1c2cccc(NC(=S)Nc3ncccn3)c2C2CCCCN12 (centres unmarked); ≥ 100 µM
COc1cc(NC(=O)Nc2cccc3c2C2CC4(CCN2C3=O)OCCO4)nc2ccccc12 (centres unmarked); > 10 µM
O=C1CCN2C(=O)c3cccc(NC(=O)Nc4cc(O)c5ccccc5n4)c3C2C1 (centres unmarked); ≥ 10 µM

Prompt line: Give the measured IC50 of O=C(Nc1nc2ccccc2s1)Nc1cccc2c1C1CCCCN1C2=O (centres unmarked) .
Response line: 88 µM

Prompt line: Give the measured IC50 of O=C1c2cccc(NC(=S)Nc3cnccn3)c2C2CC3(CCN12)SCCS3 (centres unmarked) .
Response line: > 10 µM

Prompt line: Give the measured IC50 of O=C(Nc1ccncn1)Nc1cccc2c1C1CCCCN1C2=O (centres unmarked) .
Response line: 71 µM

Prompt line: Give the measured IC50 of O=C(Nc1cccc2c1C1CCCCN1C2=O)Nc1nc(Cl)c(Cl)c(Cl)c1Cl (centres unmarked) .
Response line: > 100 µM

Prompt line: Give the measured IC50 of COC1CCN2C(=O)c3cccc(NC(=O)Nc4cnc(C)cn4)c3C2C1 (centres unmarked) .
Response line: > 10 µM

Prompt line: Give the measured IC50 of Cc1cccc(NC(=O)Nc2cccc3c2C2CC4(CCN2C3=O)SCCS4)n1 (centres unmarked) .
Response line: > 10 µM
